Where these numbers come from: PubChem BioAssay AID1490

molecular target: 4'-phosphopantetheinyl transferase ffp (Bacillus subtilis); assay: qHTS Assay for Inhibitors of Bacillus subtilis Sfp phosphopantetheinyl transferase (PPTase); conditions: Biochemical Sfp PPTase activity;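 note: the enzyme is Sfp with the accession as filed and its product quenches rhodamine fluorescence; 0% = enzyme reaction without inhibitor and -100% = no enzyme wells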
The whole screen tested about 310,000 compounds, of which about 11,000 (3.5%) were called active. Another 4% or so got no clear call; they are omitted. Shown is part of a subset that was picked to be rich in actives.
Attribute: largest response in the series, negative = inhibition
Hi! Could you send only the number? It should be in %, unit omitted.

Compound	Tgt	Experimental Result
c1cncc(CNC2=NCCC2)c1	4'-phosphopantetheinyl transferase ffp (Bacillus subtilis)	12.2
O=C(Nc1cccc2ccccc12)N1CCC2(CC1)OCCO2	4'-phosphopantetheinyl transferase ffp (Bacillus subtilis)	0.463
CCOC(=O)c1c(C)c(C(=O)N2CCC3(CC2)OCCO3)c(C)n1CC	4'-phosphopantetheinyl transferase ffp (Bacillus subtilis)	-3.49

API: the following record is the query input.
Enquiry: Give recorded largest response in the series, negative = inhibition. OC(Cn1c2ccccc2c2ccccc21)C[n+]1ccccc1 (centres undefined)
Return: 4.01
